System: biotinyl-Leu-oxazolone
assayRemarks: self-aminoacylation, catalytic enhancement (BLO) (fold over background); higher = more active; k-Seq, kA / k0A0; sequences stand for … in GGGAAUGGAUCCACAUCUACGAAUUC…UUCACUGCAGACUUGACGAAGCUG
Fewer inactive variants are shown than the library holds.
Items are presented alongside their recorded self-aminoacylation.
measurementLabel: self-aminoacylation

AAGUUUGCUAGUAGUCACAAG [Fam3.1 aminoacylation ribozyme variant] ... 0.962
CUAAUUCACACAAUCGGUCUG [Fam1A.1 aminoacylation ribozyme variant] ... 0.85
AUUCACCUAGGUGAUCUGGUG [Fam2.2 aminoacylation ribozyme variant] ... 2.36
CGACUUCAAACAGUCGGUCUG [Fam1A.1 aminoacylation ribozyme variant] ... 1.63
CAACUUCAAAUAAUCGGUCUG [Fam1A.1 aminoacylation ribozyme variant] ... 1.39
AUUAGCCUGUUCAUCGAGUGA [Fam2.1 aminoacylation ribozyme variant] ... 5.5
AAGUUUGCUAAUACACGCAAG [Fam3.1 aminoacylation ribozyme variant] ... 0.564
UCACACUUCAAGCAAUCGGUA [Fam1B.1 aminoacylation ribozyme variant] ... 1.04

* * *

System: biotinyl-Phe-oxazolone
assayRemarks: self-aminoacylation, catalytic enhancement (BFO) (fold over background); higher = more active; k-Seq, kA / k0A0; sequences stand for … in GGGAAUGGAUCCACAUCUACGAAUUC…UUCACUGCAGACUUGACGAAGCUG
This sample holds only a part of the variants without activity.
Items are presented alongside their recorded self-aminoacylation.
measurementLabel: self-aminoacylation

CUACGUCAAACAAUCCGUCUG [Fam1A.1 aminoacylation ribozyme variant] ... 2.75
AUUCAACUAGGUCAUCGCGUG [Fam2.2 aminoacylation ribozyme variant] ... 65.2
AGUACCCUGGCCAUCGAGUGA [Fam2.1 aminoacylation ribozyme variant] ... 10.2
AUUACCCUCGUCAACGAGUGA [Fam2.1 aminoacylation ribozyme variant] ... 5.53
CUACUUCAGACAAUCGGACUG [Fam1A.1 aminoacylation ribozyme variant] ... 0.835
CCACACUGCAAGCAAUCAGUC [Fam1B.1 aminoacylation ribozyme variant] ... 1.1
CUACUGCAAACAAUCGGUCCG [Fam1A.1 aminoacylation ribozyme variant] ... 6.96
CAGCUUGCUAAUAGUCGCAAG [Fam3.1 aminoacylation ribozyme variant] ... 2.54

* * *

System: biotinyl-Leu-oxazolone
assayRemarks: self-aminoacylation, catalytic enhancement (BLO) (fold over background); higher = more active; k-Seq, kA / k0A0; sequences stand for … in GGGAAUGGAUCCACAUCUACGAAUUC…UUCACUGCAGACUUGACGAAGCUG
This sample holds only a part of the variants without activity.
measurementLabel: self-aminoacylation

AAGUUUGGUAAUAGUCACAAG [Fam3.1 aminoacylation ribozyme variant] ... 0.902
CCACACUUCACGCAAACGGUC [Fam1B.1 aminoacylation ribozyme variant] ... 0.861
AUUCCCCUGGUCAUCGAGCGA [Fam2.1 aminoacylation ribozyme variant] ... 2.75
AAGUUUGCUAAUAAUCGCAUG [Fam3.1 aminoacylation ribozyme variant] ... 0.932
AUGACCCUGGUCGUCGAGUGA [Fam2.1 aminoacylation ribozyme variant] ... 1.38
CUUACCUUGGUCAUCGAGUGA [Fam2.1 aminoacylation ribozyme variant] ... 2.99
AAGUUUGCUAAAAGUCGCUAG [Fam3.1 aminoacylation ribozyme variant] ... 0.944
UUACUUCAAAGAAUCGGUCUG [Fam1A.1 aminoacylation ribozyme variant] ... 1.57
AAGUUCGCUAAUAGUCGGAAG [Fam3.1 aminoacylation ribozyme variant] ... 1.17
UAGUUUGUUAAUAGUCGCAAG [Fam3.1 aminoacylation ribozyme variant] ... 2.05
CCACACUUCAAGCACUCGAUC [Fam1B.1 aminoacylation ribozyme variant] ... 0.546
CUUCACCUAGGUCAACGGGUG [Fam2.2 aminoacylation ribozyme variant] ... 2.48
CCACACGUCAAGCGAUCGGUC [Fam1B.1 aminoacylation ribozyme variant] ... 1.11
ACGCACCUAGGUCAUCGGGUG [Fam2.2 aminoacylation ribozyme variant] ... 3.1
CCACCUUUCAAGCAAUCGGUC [Fam1B.1 aminoacylation ribozyme variant] ... 1.35
AUUACCCUGGUCGUCGAGUGC [Fam2.1 aminoacylation ribozyme variant] ... 0.808
AAGUUUGCUAAUAUUCUCAAG [Fam3.1 aminoacylation ribozyme variant] ... 1.15
AUUACCCUGGUCGUCGCGUGA [Fam2.1 aminoacylation ribozyme variant] ... 8.84
AAGUUUGCUACUAGUCGCAUG [Fam3.1 aminoacylation ribozyme variant] ... 0.707
AAAUUGGCUAAUAGUCGCAAG [Fam3.1 aminoacylation ribozyme variant] ... 2.05
AAGUUUGCAAAAAGUCGCAAG [Fam3.1 aminoacylation ribozyme variant] ... 0.938
UAGUUUGCUAAUAGUCGCAAA [Fam3.1 aminoacylation ribozyme variant] ... 1.53
AUUACCCUGGUCAUCGAGGGA [Fam2.1 aminoacylation ribozyme variant] ... 5.66
CCACACUGCAGGCAAUCGGUC [Fam1B.1 aminoacylation ribozyme variant] ... 1.57
CCCCACUUCAAUCAAUCGGUC [Fam1B.1 aminoacylation ribozyme variant] ... 2.28
CCACACUUCAGCCAAUCGGUC [Fam1B.1 aminoacylation ribozyme variant] ... 2.27
AAGUUUGCUAAUUGUGGCAAG [Fam3.1 aminoacylation ribozyme variant] ... 0.988
ACUCACCUAGGUCAUCUGGUG [Fam2.2 aminoacylation ribozyme variant] ... 2.03
AUUCAUCUAGGUCAUCGGGUC [Fam2.2 aminoacylation ribozyme variant] ... 1.22
ACACACUUCAAGCAAUCGCUC [Fam1B.1 aminoacylation ribozyme variant] ... 1.75
AUUACCCUGGUCAUCUCGUGA [Fam2.1 aminoacylation ribozyme variant] ... 2.62
AUUACCCUGGACAUCUAGUGA [Fam2.1 aminoacylation ribozyme variant] ... 5.12
UUUACCCUGCUCAUCGAGUGA [Fam2.1 aminoacylation ribozyme variant] ... 2.15
UUGUUUGCUAAUAGUCGCAAG [Fam3.1 aminoacylation ribozyme variant] ... 1.24
CAUCACUUCAAGCAAUCGGUC [Fam1B.1 aminoacylation ribozyme variant] ... 1.47
